system.under.test: recombinant SARS-CoV-2 spike S1 RBD (R319-F541), C-terminal 6-His (SARS-CoV-2, UniProt P0DTC2 319-541)
assay.info: lateral flow NC50, RBD-AuNP vs immobilised ACE2
property: IC50
Put your answer as a value accompanied by its unit after it.

Illustrative cases are given below, each with its answer.
QUERY: // query IC50 value for entry 1035753 (antibody, V domains shown) VH: EVQLQQSGAELVRPGALVKLSCKASGFNIKDYYMHWVKQRPEQGLEWIGWIDPENGNTIYDPKFLGKASITADTSSNTAYLQLSSLTSEDTAVYYCARWYYYAMDSWGQGTSVTVSS VL: DIQMTQTTSSLSASLGDRVTISCSASQGISNYLNWYQQKPDGTVKLLIYYTSSLHSGVPSRFSGSGSGTDYSLTISNLEPEDIATYYCQQYSKLPFTFGGGTNLEMK
RESULT: 1.66 µg/mL

QUERY: // query IC50 value for entry 1035224 (antibody, V domains shown) VH: EVQLQQSGAEFVRPGALVKLSCKASGFNIKDDYMHWVKQRPEQGLEWIGWIDPENGNSIYDPKFQGKASITADTSSNTAYLQLSSLTSEDTAVYYCARGEYFGSGSFAYWGQGTLVTVSA VL: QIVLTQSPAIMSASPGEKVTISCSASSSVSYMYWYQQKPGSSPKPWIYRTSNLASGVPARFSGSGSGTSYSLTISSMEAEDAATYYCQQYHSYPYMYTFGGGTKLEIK
RESULT: 0.66 µg/mL

As a next step, examine the binder that follows.
QUERY: // query IC50 value for entry 1035419 (antibody, V domains shown) VH: QVQLKQSGAELVRPGASVKLSCKTSGYIFTSYWIHWIKQRSGQGLEWIARIYPGTGSTYNNEKFKGKATLTADKSSSTAYMQLSSLKSEDSAVYFCARGEDNLYFYAMDYWGQGTSVTVSS VL: NIVLTQSPASLAVSLGQRATISCRASESVDSYGASFMHWCQQKPGQPPKLLIYLASNLESGVPARFSGSGSRTDFTLTIDPVEADDAATYYCQQNYEDPWTFGGGTKLEIK
RESULT: 3.27 µg/mL
